Source listed as PubChem BioAssay.

- target-or-system: E3 ubiquitin-protein ligase XIAP (Homo sapiens)
- experiment: small molecules binding XIAP protein – biophysical, small-molecule microarray, fluorescence 635 nm, primary screen (AID 1181);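 further: score merges 667 nm emission and signal to noise over triplicate slides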
- condition-context: higher = more signal
observation-type: composite z-score
The answer should be written as a number, with no unit following it.

- C=CC[C@@]1(C(=O)OC)N=C(c2ccc(OCCCO)cc2)O[C@@H]1c1ccccc1CN=[N+]=[N-]: -0.0868

Report value only: composite z-score, E3 ubiquitin-protein ligase XIAP (Homo sapiens), COC(=O)c1nc2oc1CC[C@@H](CO)NC(=O)N(C)Cc1cn(nn1)C[C@H](Cc1ccccc1)NC2=O
-0.117

Report value only: composite z-score, E3 ubiquitin-protein ligase XIAP (Homo sapiens), COc1ccc(C(O)C2C=CC3C(=O)N(c4ccccc4)C(=O)C3N2Nc2ccccc2)c2ccccc12 (stereo not drawn)
-0.0049

Report value only: composite z-score, E3 ubiquitin-protein ligase XIAP (Homo sapiens), O=C(NCc1ccccc1)[C@@H]1c2ccccc2C(=O)N(C2CCCCC2)[C@H]1c1ccc(CO)cc1
0.117

Report value only: composite z-score, E3 ubiquitin-protein ligase XIAP (Homo sapiens), C=C[C@@H](C)[C@@H](OC(=O)Nc1ccc(OC)cc1)c1ccc(O)c2ccccc12
-0.125

Report value only: composite z-score, E3 ubiquitin-protein ligase XIAP (Homo sapiens), [N-]=[N+]=NCc1ccccc1C[C@]1(C(N)=O)N=C(c2ccc(OCCCO)cc2)O[C@H]1c1ccccc1N=[N+]=[N-]
-0.0444

Report value only: composite z-score, E3 ubiquitin-protein ligase XIAP (Homo sapiens), CN1C(=O)C2C=CC(C(O)C(C)(C)C)N(Nc3ccccc3)C2C1=O (stereo not drawn)
0.621

Report value only: composite z-score, E3 ubiquitin-protein ligase XIAP (Homo sapiens), CC(=O)N1Cc2ccccc2C[C@@]2(N=C(c3ccc(OCCCO)cc3)O[C@H]2c2ccccc2)C1=O
0.0651
